Counter-ions that a name gives are not always drawn.
Result type: melting point

COc1cc2c(cc1C(F)(F)F)N(C(=O)Nc1ccc(-n3cccn3)nc1)CC2
> 225 °C
COc1cc2c(cc1C(F)(F)F)N(C(=O)Nc1cncc(-c3ccc[nH]3)c1)CC2
218 to 219 °C
COc1cc2c(cc1C(F)(F)F)N(C(=O)Nc1cc(-c3cccnc3)cc(C(F)(F)F)c1)CC2
220 to 222 °C

# get_value(readout='melting point', item= COc1cc2c(cc1C(F)(F)F)N(C(=O)Nc1cncc(-c3cccnc3)c1)CC2 )
113 to 114 °C

Entry COc1cc2c(cc1C(F)(F)F)N(C(=O)Nc1cncc(-c3ccccc3CO)c1)CC2 please
190 to 192 °C

O=C(Nc1cc(F)cc(-c2cncnc2)c1)N1CCc2cc(Br)c(C(F)(F)F)cc21 , same question.
214 to 218 °C

Can you check COc1cccc(Oc2ccc(NC(=O)N3CCc4cc(OC)c(C(F)(F)F)cc43)cn2)c1 next?
188 to 189 °C

Same lookup for CSc1cc2c(cc1C(F)(F)F)N(C(=O)Nc1ccc(C(=O)NCc3cccnc3)cc1)CC2 , please.
> 250 °C

Can you handle Cc1cc2c(cc1Cl)N(C(=O)Nc1ccc(F)c(-c3cncnc3)c1)CC2 next?
211 to 213 °C

Then what about the molecule COc1cc2c(cc1C(F)(F)F)N(C(=O)Nc1ccc(CSc3ccncc3)cc1)CC2 ?
174 to 175 °C

Then this molecule: COc1cc2c(cc1C(F)(F)F)N(C(=O)Nc1cccc(-c3ccc(CN(C)C)cc3)c1)CC2
209 to 211 °C

And Cc1cc2c(cc1Cl)N(C(=O)Nc1cc(F)cc(-c3cnccn3)c1)CC2 ?
226 to 227 °C

Further, for COc1cc2c(cc1C(F)(F)F)N(C(=O)Nc1cc(F)cc(-c3cccnn3)c1)CC2 ?
230 to 231 °C

Same thing, different molecule: COc1cc2c(cc1C(F)(F)F)N(C(=O)Nc1cncc(-c3cccs3)c1)CC2
193 to 208 °C

Continue with COc1cc2c(cc1C(F)(F)F)N(C(=O)Nc1cncc(-c3cncnc3)c1)CC2
120 to 121 °C

Queued: CSc1cc2c(cc1C(F)(F)F)N(C(=O)Nc1cc(F)cc(-c3cccnc3)c1)CC2 (as salt: hydrochloride)
202 to 203 °C

* * *

Result type: melting point

COc1cc2c(cc1C(F)(F)F)N(C(=O)Nc1cc(F)cc(-c3cnccn3)c1)CC2 [Example 126]
230 to 231 °C
COc1cc2c(cc1C(F)(F)F)N(C(=O)Nc1cccc(-c3cnc4ccccc4c3)c1)CC2 [Example 86]
240 °C (dec.)
COc1cc2c(cc1C(F)(F)F)N(C(=O)Nc1cccc(-c3ccc(C)nc3)c1)CC2 [Example 112]
228 to 230 °C

Form field: reported melting point of COc1cc2c(cc1C(F)(F)F)N(C(=O)Nc1cc(F)cc(-c3cccnc3C)c1)CC2 [Example 125]
204 to 205 °C

Now the molecule COc1cc2c(cc1C(F)(F)F)N(C(=O)Nc1ccc(C)c(-c3cnccc3C)c1)CC2 [Example 109]
153 to 155 °C

Could you do the same for COc1cc2c(cc1C(F)(F)F)N(C(=O)Nc1cncc(-c3ccccc3C)c1)CC2 [Example 90] , please?
103 to 105 °C

Now this one: COc1cc2c(cc1C(F)(F)F)N(C(=O)Nc1cc(-c3ccncc3)cc(-c3cccnc3)c1)CC2 [Example 115]
153 to 154 °C

Would you mind doing CSc1cc2c(cc1C(F)(F)F)N(C(=O)Nc1ccc(C(=O)NCc3ccncc3)cc1)CC2 [Example 151] as well?
138 to 140 °C

src = patent US6638953B2
